Target: c-Src kinase (Homo sapiens, UniProt P12931)
Construct: purchased Upstate Biotechnology, Lake Placid, N.Y
Sequence (P12931 whole entry): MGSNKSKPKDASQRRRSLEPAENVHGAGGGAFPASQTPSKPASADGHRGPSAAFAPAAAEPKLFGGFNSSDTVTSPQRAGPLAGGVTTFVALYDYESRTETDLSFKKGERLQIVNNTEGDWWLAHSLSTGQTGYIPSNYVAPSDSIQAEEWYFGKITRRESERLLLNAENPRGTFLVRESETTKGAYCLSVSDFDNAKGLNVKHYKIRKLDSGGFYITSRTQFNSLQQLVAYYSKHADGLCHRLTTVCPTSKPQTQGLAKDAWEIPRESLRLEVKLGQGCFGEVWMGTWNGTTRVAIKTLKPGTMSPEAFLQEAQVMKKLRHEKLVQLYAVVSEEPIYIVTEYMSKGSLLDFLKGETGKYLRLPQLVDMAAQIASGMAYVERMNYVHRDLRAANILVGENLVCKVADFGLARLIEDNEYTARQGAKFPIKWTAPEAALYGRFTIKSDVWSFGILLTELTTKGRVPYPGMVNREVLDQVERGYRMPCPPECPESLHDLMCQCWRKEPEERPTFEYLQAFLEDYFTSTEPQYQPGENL
Assay: c-Src Kinase Assay
Assay type: biochemical
Conditions: test concentration of 2 μM; read-out: c-Src percent inhibition
Measurement Kind: inhibition at 2 µM (%)

Answered cases to consult:
CCOC(=O)c1sc2nc(-c3cc(F)ccc3Cl)c(C#N)c3c2c1NC(=O)N3c1ccncc1
-0.6
Cc1nc2sc(C(=O)Nc3ccc(CN4CCOCC4)cc3)c3c2c(c1C#N)N(c1c(Cl)ccc2c1OCO2)C(=O)N3
11
CC1CCN(Cc2ccc(NC(=O)c3sc4ncc(C#N)c5c4c3NC(=O)N5c3c(Cl)ccc4c3OCO4)cc2)CC1
90

a: N#Cc1cnc2sc(C(=O)Nc3ccc(CCN4CCOCC4)cc3)c3c2c1N(c1c(Cl)ccc2c1OCO2)C(=O)N3
b: CCOC(=O)c1sc2nc(N3CCOCC3)c(C#N)c3c2c1NC(=O)N3c1c(Cl)ccc2c1OCO2
c: N#Cc1c(N2CCOCC2)nc2sc(C(=O)Nc3ccc(CN4CCOCC4)cc3)c3c2c1N(c1c(Cl)ccc2c1OCO2)C(=O)N3
d: CCOC(=O)c1sc2nc(O)c(C#N)c3c2c1NC(=O)N3c1ccncc1
Ask: In this exercise, place the 4 compounds in ascending sequence of their recorded inhibition at 2 µM. Labels, requested order.
Reply: c, b, d, a
(c: -21%, b: -1%, d: 11%, a: 78%)

----------
Biological target: HER-2 (Homo sapiens)
Construct: the nucleotides encoding amino acids 679 to 1255 of HER-2; purchased Proqinase (Freiburg, Germany)
Sequence (P04626 679-1255): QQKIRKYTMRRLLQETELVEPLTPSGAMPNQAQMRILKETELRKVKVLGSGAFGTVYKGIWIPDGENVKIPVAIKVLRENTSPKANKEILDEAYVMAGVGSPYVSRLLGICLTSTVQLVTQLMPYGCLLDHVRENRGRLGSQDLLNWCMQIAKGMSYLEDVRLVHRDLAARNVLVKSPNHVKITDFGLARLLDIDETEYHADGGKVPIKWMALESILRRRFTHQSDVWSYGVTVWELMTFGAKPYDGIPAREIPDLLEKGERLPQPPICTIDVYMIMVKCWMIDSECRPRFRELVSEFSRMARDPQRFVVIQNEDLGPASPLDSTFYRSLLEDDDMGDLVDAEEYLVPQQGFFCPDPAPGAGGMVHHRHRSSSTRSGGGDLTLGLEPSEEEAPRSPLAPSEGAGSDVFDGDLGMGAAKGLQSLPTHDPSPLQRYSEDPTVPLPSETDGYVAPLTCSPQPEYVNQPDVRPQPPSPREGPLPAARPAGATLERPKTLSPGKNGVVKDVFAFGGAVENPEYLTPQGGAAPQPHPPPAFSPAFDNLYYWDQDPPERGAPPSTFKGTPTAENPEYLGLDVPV
Test: HER-2 Kinase Assay
Assay type: biochemical
Settings: test concentration of 1 μM; read-out: HER-2 percent inhibition
Measurement Kind: inhibition at 1 µM (%)

N#Cc1cnc2sc(C(=O)Nc3cc[nH]n3)c3c2c1N(c1c(Cl)ccc2c1OCO2)C(=O)N3
37
N#Cc1cnc2sc(C(=O)Nc3cccnc3)c3c2c1N(c1c(Cl)ccc2c1OCO2)C(=O)N3
29
CN(C)c1cc(NC(=O)c2sc3ncc(C#N)c4c3c2NC(=O)N4c2c(Cl)ccc3c2OCO3)ccc1CN1CCOCC1
0
N#Cc1cnc2sc(C(=O)Nc3ccccn3)c3c2c1N(c1c(Cl)ccc2c1OCO2)C(=O)N3
11
N#Cc1cnc2sc(C(=O)Nc3ccncc3)c3c2c1N(c1c(Cl)ccc2c1OCO2)C(=O)N3
0
CC1CCN(Cc2ccc(NC(=O)c3sc4ncc(C#N)c5c4c3NC(=O)N5c3c(Cl)ccc4c3OCO4)cc2)CC1
49
CC1COCC(C)N1Cc1ccc(NC(=O)c2sc3ncc(C#N)c4c3c2NC(=O)N4c2c(Cl)ccc3c2OCO3)cc1 (stereo not shown)
12
CC(C)(CO)NC(=O)c1sc2ncc(C#N)c3c2c1NC(=O)N3c1c(Cl)ccc2c1OCO2
0
CN(C(=O)c1sc2ncc(C#N)c3c2c1NC(=O)N3c1c(Cl)ccc2c1OCO2)c1ccc(CN2CCOCC2)cc1
0
N#Cc1cnc2sc(C(=O)Nc3ccc(CN4CCC(O)CC4)cc3)c3c2c1N(c1c(Cl)ccc2c1OCO2)C(=O)N3
44

a: COc1cc(NC(=O)c2sc3ncc(C#N)c4c3c2NC(=O)N4c2c(Cl)ccc3c2OCO3)ccc1OCCN1CCCCC1
b: CN1CCCCC1COc1ccc(NC(=O)c2sc3ncc(C#N)c4c3c2NC(=O)N4c2c(Cl)ccc3c2OCO3)cc1 (stereo not shown)
c: N#Cc1cnc2sc(C(=O)N3CCCC(CO)C3)c3c2c1N(c1c(Cl)ccc2c1OCO2)C(=O)N3 (stereo not shown)
d: Cn1ccc(NC(=O)c2sc3ncc(C#N)c4c3c2NC(=O)N4c2c(Cl)ccc3c2OCO3)n1
e: C[C@@H]1CN(Cc2ccc(NC(=O)c3sc4ncc(C#N)c5c4c3NC(=O)N5c3c(Cl)ccc4c3OCO4)cc2)C[C@H](C)O1
Ask: In this exercise, place the 5 molecules in ascending sequence of their recorded inhibition at 1 µM. Labels, requested order.
Reply: d, e, c, b, a

All values here come from patent US7427625B2.
